Assay: soluble on expression in E. coli; label from the status in PepcDB or PDB records
Assay Readout: soluble on expression in E. coli

MGSDKIHHHHHHMKQKNYHSCTVGQIVAGNFDTTKVFSRYHIDFCCHGNTPFAEACRNRGIDPEAVAHELNELQENTVSNAPDFAGWPIDLLIDYVLKIHHRGIRAKGPQIEALLTKVTEAHSKNHPELLQVQALFRDSLLDLENHLSKEENVLFPYVYEMFQAKEEGLKVAKFHCGTILYPIEVMEDEHNHEGERFEKISSLTNGFTAPEDACASFRLVLQQLKQFEEALHEHIHLENNIIFPRALELEKKEAI not soluble
GPGSMELNQLELFVASTEHTRSDAWRYLRRLRVLDCKIEEGFDRLHEIAVQLSGTDSDGNLVDNQGNGTLQPDRKKRGRPPLCKNAFTATPYNVGQSPDSSVLLVDPAVANLHEEFRKHSRSVKRYALEREQIAEELVASGKELTEYLEARMREFRATFSISD soluble
SDRFVWTSGLLEINETLVIQQRGVRIYDGEEKIKFDAGTLLLSTHRLIWRDQKNHECCMAILLSQIVFIEEQAAGIGKSAKIVVHLHPAPPNKEPGPFQSSKNSYIKLSFKEHGQIEFYRRLSEEMTQRRWENMPVSQSLQTNRGPQPGRIRAVGIVGIERKLEEKRKETDKNISEAFEDLSKLMIKAKEMVELSKSIANKIKDKQGDITEDETIRFKSYLLSMGIANPVTRETYGSGTQYHMQLAKQLAGILQVPLEERGGIMSLTEVYCLVNRARGMELLSPEDLVNACKMLEALKLPLRLRVFDSGVMVIELQSHKEEEMVASALETVSEKGSLTSEEFAKLVGMSVLLAKERLLLAEKMGHLCRDDSVEGLRFYPNLFMTQS soluble
MAMHTWFECKIRYEKTMENGMQKKVTEPYLVDALSFTEAEARIIEEMTPFITGEFTVSDIKRANYSELFPSDEESADRWFKCKLIFITLDEKSGAEKKTSTQVLVQAADLRDAVKKLDEGMKGTMADYQIGMVSETPLMDVYPYSAGPNDKPEFDPSKA not soluble
MAFNKVKIVKGSGGWGGPLIIEPTEKKNKVVYVTGGAKPETAVKIAELTGCELIDGFSQGVKDDEIACVIINCGGTLRCGIYPQKKIPTINIMKTGKSGPLAMFIKEDIYVSGVKPTNVEQ not soluble
MTIIAGLPVEYNDRFIRGIAVFAPWRKTPGNYHQSHGACLGRRSRTITVVDEQPQGMDMDPTCSLFTTGQCLGEPDLLASARRLQFFSHQYSIAVLMANARGNSALWDEYGRLIVRADRGSLLLVGQRSSQGWQGDIIPLR not soluble

# evaluate next
Reported soluble on expression in E. coli of `MRKERRMIKLAIFDMDGTLTDEPSSWEYVHRRLHTDNHMNFRLYRNGFISYEEFFRSDVLAWLRMHPRLKKDDIAGILRDIKLRDGSSEVVNGLKERGLITAVVSGGISWLCDILNEYMQIDYNLSNVIATDEGGFVQPWGYIRVIPERKNIAVKSLQSMLHISKDETISIGDSMENGMIHINSSKAYIIGGKGRHGEIPLGNNIRNLLSYI` : not soluble
